B1: Androgen receptor, residues 557 to 632; numbered along this chain, P10275 (parent)
chain: QKTCLICGDEASGCHYGALTCGSCKVFFKRAAEGKQKYLCASRNDCTIDKFRRKNCPSCRLRKCYEAGMTLGARKL

# Variants of: B1
# protocolNotes: abundance fitness (aPCA) (normalised: wild type 0, dead -1); higher = more abundant; growth selection in yeast, the domain comes from the species named
# setupConditions: Homo sapiens
# binarize abundance fitness: threshold -0.2 inclusive, high side met, low side not met

Hi team, for G8Q , is the recorded abundance fitness at or above -0.2?
not met

Hi team, for G8T , is the recorded abundance fitness at or above -0.2?
not met

Hi team, for K37R , is the recorded abundance fitness at or above -0.2?
met

Hi team, for L39N , is the recorded abundance fitness at or above -0.2?
met

Hi team, for C21H , is the recorded abundance fitness at or above -0.2?
not met

Hi team, for K37H , is the recorded abundance fitness at or above -0.2?
met

Hi team, for S58K , is the recorded abundance fitness at or above -0.2?
met

Hi team, for D9G , is the recorded abundance fitness at or above -0.2?
met

Hi team, for Y38D , is the recorded abundance fitness at or above -0.2?
met

Hi team, for L19A , is the recorded abundance fitness at or above -0.2?
met

Hi team, for D9H , is the recorded abundance fitness at or above -0.2?
met

Hi team, for S58D , is the recorded abundance fitness at or above -0.2?
met

Hi team, for R74W , is the recorded abundance fitness at or above -0.2?
met

Hi team, for E33K , is the recorded abundance fitness at or above -0.2?
met

Hi team, for G72Q , is the recorded abundance fitness at or above -0.2?
met

Hi team, for E33L , is the recorded abundance fitness at or above -0.2?
met

Hi team, for S58N , is the recorded abundance fitness at or above -0.2?
met

Hi team, for L5H , is the recorded abundance fitness at or above -0.2?
met

Hi team, for D9C , is the recorded abundance fitness at or above -0.2?
met

Hi team, for A73S , is the recorded abundance fitness at or above -0.2?
met

Hi team, for C46M , is the recorded abundance fitness at or above -0.2?
not met

Hi team, for I48F , is the recorded abundance fitness at or above -0.2?
not met

Hi team, for V26H , is the recorded abundance fitness at or above -0.2?
met

Hi team, for Y65R , is the recorded abundance fitness at or above -0.2?
met

Hi team, for C21T , is the recorded abundance fitness at or above -0.2?
not met

Hi team, for I6C , is the recorded abundance fitness at or above -0.2?
not met

Hi team, for A32Y , is the recorded abundance fitness at or above -0.2?
met

Hi team, for P57R , is the recorded abundance fitness at or above -0.2?
met

Hi team, for K25N , is the recorded abundance fitness at or above -0.2?
met

Hi team, for G22W , is the recorded abundance fitness at or above -0.2?
met

Hi team, for A18Q , is the recorded abundance fitness at or above -0.2?
not met

Hi team, for S58V , is the recorded abundance fitness at or above -0.2?
met

Hi team, for N44D , is the recorded abundance fitness at or above -0.2?
met

Hi team, for C24K , is the recorded abundance fitness at or above -0.2?
not met

Hi team, for A73I , is the recorded abundance fitness at or above -0.2?
met

Hi team, for S12V , is the recorded abundance fitness at or above -0.2?
met

Hi team, for V26G , is the recorded abundance fitness at or above -0.2?
met

Hi team, for L19R , is the recorded abundance fitness at or above -0.2?
met

Hi team, for G13A , is the recorded abundance fitness at or above -0.2?
met

Hi team, for D9K , is the recorded abundance fitness at or above -0.2?
not met

Hi team, for T47Y , is the recorded abundance fitness at or above -0.2?
met

Hi team, for Q1T , is the recorded abundance fitness at or above -0.2?
met

Hi team, for T47Q , is the recorded abundance fitness at or above -0.2?
met

Hi team, for Y16P , is the recorded abundance fitness at or above -0.2?
not met

Hi team, for L5D , is the recorded abundance fitness at or above -0.2?
met

Hi team, for C64T , is the recorded abundance fitness at or above -0.2?
not met
